assay: viability loss in pontine glioma line – cell-based, SU-DIPG-IV, MIPE4.0, CellTiter-Glo, qHTS, dose response (AID 1347063);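 further: compound exposure lasted 48 hours before the viability readout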
settings: CellTiter-Glo ATP luminescence
Records with an inconclusive call do not appear. The source made the active and inactive calls. Cut-off not given; nearly all actives show AC50 up to about 30 µM.
Possible outcomes: active, inactive

                                   molecule  answer_label
0  OC[C@H]1O[C@@H](OCCc2ccc(O)cc2)[C@H](O)[C@@H](O)[C@@H]1O      inactive
1  O=C(/C=C/c1ccc(/C=C/C(=O)Nc2ccc(C3=NCCN3)cc2)cc1)Nc1ccc(C2=NCCN2)cc1      inactive
2    C/C(O)=C(\C#N)C(=O)Nc1ccc(C(F)(F)F)cc1      inactive
3  CC(C)c1cc(C(=O)N2Cc3ccc(CN4CCN(C)CC4)cc3C2)c(O)cc1O        active
4  CC(=O)N(C)C1(c2ccccc2)CCN(CCC[C@]2(c3ccc(Cl)c(Cl)c3)CCCN(C(=O)c3ccccc3)C2)CC1        active
5  O=C(O)C1=NC(C(=O)O)CC(/C=C/N2c3cc(O)c(OC4OC(CO)C(O)C(O)C4O)cc3CC2C(=O)O)=C1 (centres undefined)      inactive
6  c1ccc2c(CCNc3ccc(Nc4ccncc4)cc3)c[nH]c2c1        active
7  CN(c1ncccc1CNc1nc(Nc2ccc3c(c2)CC(=O)N3)ncc1C(F)(F)F)S(C)(=O)=O        active
8  c1cc(OCCN2CCCCC2)cc(-c2n[nH]c3ccc(-c4ncn[nH]4)cc23)c1      inactive

* * *

compounds and their reported cell count
assay: viability loss with induced miR-34 in A549 – imaging, A549 dox-inducible miR-34, nuclei and caspase counts, primary screen (AID 1347080)
settings: A549 miR-34 inducible, Hoechst nuclei count, 48 h; measured here: total cells with miR-34 induction; stronger effect = lower value
measured attribute: cell count

>>> print(df.to_string())
                                    compound  value_measured
 0  CCCCC[C@H](O)/C=C/[C@H]1C(=O)C[C@H](O)[C@@H]1C/C=C/CCCC(=O)O            5890
 1      O=C(NC1CCN(Cc2ccccc2)CC1)c1ccc(I)cc1            6720
 2  O=C(O)CCC/C=C\C[C@H]1[C@@H](O)CC(=O)[C@@H]1/C=C/[C@@H](O)COc1cccc(C(F)(F)F)c1            6530
 3          CCCCNC(=O)NS(=O)(=O)c1ccc(CO)cc1            5120
 4                   CC(=O)OCCNC(=O)c1cccnc1            9480
 5          Nc1nnc(Sc2ncc([N+](=O)[O-])s2)s1            3000
 6  Nc1c(S(=O)(=O)O)cc(Nc2cccc3ccccc23)c2c1C(=O)c1ccccc1C2=O            9410
 7    O=C(c1ccc(F)cc1)C1CCN(CCCCc2ccccc2)CC1            8620
 8              O=C(c1ccc2c(c1)OCO2)N1CCCCC1            9020
 9  CNC(=O)[C@H]1O[C@@H](n2cnc3c(NCc4cccc(I)c4)ncnc32)[C@H](O)[C@@H]1O            8280
10  CCCCC[C@H](O)/C=C/[C@H]1[C@H](O)CC(=O)[C@@H]1C/C=C\CCCC(=O)NCCO            6290
11  CCCCc1nn(-c2ccccc2C(F)(F)F)c(=O)n1Cc1ccc(-c2ccccc2S(=O)(=O)NC(=O)c2sccc2C)cc1            7450
12  Cc1c(O)cccc1C(=O)NC(CSc1ccccc1)C(O)CN1CC2CCCCC2CC1C(=O)NC(C)(C)C (stereo unspecified)            2190
13  O=C(O)CCC/C=C\C[C@@H]1[C@@H](CC[C@@H](O)CCc2cccc(C(F)(F)F)c2)[C@H](O)C[C@@H]1O            6330
14  Cc1c(NC(=O)N2CCOCC2)ccc2c1c1ccccc1n2C(C)C            8260
15  O=C1c2ccccc2CCC1CNCCc1ccc(O)cc1 (stereo unspecified)            8920
16  COC(=O)Nc1ccc(-c2nc(N3CCOCC3)c3cnn(C4CCN(C(=O)OC)CC4)c3n2)cc1            2420
17  O=C1OC[C@@H](Cc2cccc(O)c2)[C@@H]1Cc1cccc(O)c1            5590
18           CCCCC/C=C\C/C=C\CCCCCCCC(=O)OCC            4750
19  CCCCC/C=C\C/C=C\CCCCCCCC(=O)OC[C@H](O)CO            4490
20                  COC(=O)/C=C/c1cc(O)ccc1O            8110

* * *

assay: viability loss with induced miR-34 in A549 – imaging, A549 dox-inducible miR-34, nuclei and caspase counts, primary screen (AID 1347080)
settings: A549 miR-34 inducible, Hoechst nuclei count, 48 h; measured here: relative caspase fold change +Dox/-Dox
measured attribute: fold change

In [3]: df
Out[3]:
                                  structure  measured_attribute  value_measured
0  O=c1oc(-c2ccc(C(F)(F)F)cc2)nn1Cc1cc(Cl)ccc1O         fold change            1.81
1      CC(C)Oc1ccc(Cc2ccc(NC3=NCCN3)cc2)cc1         fold change           0.967
2  COc1cc(OC)c2c(=O)[nH]c(-c3cc(C)c(OCCO)c(C)c3)nc2c1         fold change           0.714
3  COc1ccc2c(c1)c(CC(=O)Oc1ccc(-c3cc(=S)ss3)cc1)c(C)n2C(=O)c1ccc(Cl)cc1         fold change            2.02
4  C=C1O[C@@](CO)(n2cnc3c(N)ncnc32)[C@H](O)[C@@H]1O         fold change             1.1
5  O=C(O)c1cc(Oc2ccc([N+](=O)[O-])cc2)cc(Oc2ccc([N+](=O)[O-])cc2)c1         fold change           0.988
6  CCCCCCCCCCCCCCCCOC[C@H](COP(=O)([O-])OCCCCCC[N+](C)(C)C)OC(C)=O         fold change            1.73
7  CNC(=O)CN1CCC(Oc2cc3c(Nc4cccc(Cl)c4F)ncnc3cc2OC)CC1         fold change            1.05
8  CCCCC[C@H](O)/C=C/[C@H]1C(=O)C[C@H](O)[C@@H]1CCCCCCCO         fold change            1.46

* * *

assay: viability loss with induced miR-34 in A549 – imaging, A549 dox-inducible miR-34, nuclei and caspase counts, primary screen (AID 1347080)
settings: A549 miR-34 inducible, Hoechst nuclei count, 48 h; measured here: total cells without miR-34 induction

compound	cell count
CC(C)c1ccc(C(=O)c2cccs2)c(SCCCCCCCCN(C)C)n1	3100
CO[C@H]1C[C@@H]2CC[C@@H](C)[C@@](O)(O2)C(=O)C(=O)N2CCCC[C@H]2C(=O)O[C@H]([C@@H](C)C[C@@H]2CC[C@@H](O)[C@H](OC)C2)CC(=O)[C@H](C)/C=C(\C)[C@@H](O)[C@@H](OC)C(=O)[C@H](C)C[C@H](C)/C=C/C=C/C=C/1C	3700
CCCCCCCCCCCCCCCCOC[C@H](COP(=O)([O-])OCC[N+](C)(C)C)OC	7330
NC1(c2ccc(-c3nc4ccn5c(=O)[nH]nc5c4cc3-c3ccccc3)cc2)CCC1	4140
CCCCCCCC/C=C\CCCCCCCCCCCCCC(=O)N[C@@H](CO)[C@H](O)/C=C/CCCCCCCCCCCCC	5830
COc1cc(/C=C/c2ccc(Cl)cc2)cc(OC)c1	6070
Nc1nc2[nH]cc(CCc3ccc(C(=O)N[C@@H](CCC(=O)O)C(=O)O)cc3)c2c(=O)[nH]1	2280
Cc1cc(-c2ncc(CC(=O)Nc3ccc(-c4cnccn4)cn3)cc2C)ccn1	6730
Cc1cc(/C(=C\Nc2ccc(Cl)cc2)C(=O)Nc2ccc(Cl)cc2)on1	8680
CCCCc1nc2ccn(CC(=O)N(C)C)c(=O)c2n1Cc1ccc(-c2ccccc2-c2nn[nH]n2)cc1	8192
CCCCCCCC/C=C\CCCCCCCC(=O)OCC(O)COP(=O)(O)O (stereo not drawn)	5140
Nc1ncnc2c1c(-c1cccc(OCc3ccccc3)c1)cn2C1CC(CN2CCC2)C1 (stereo not drawn)	2830
OC[C@H]1O[C@@H](n2cnc3c(NC4CCCC4)ncnc32)[C@H](O)[C@@H]1O	10200
CCc1c(O)cc(O)c(C(=O)c2ccc(OCCN3CCOCC3)c(OC)c2)c1CC(=O)N(CCOC)CCOC	3520
CCCCC[C@H](O)/C=C/[C@@H]1[C@H]2CC(CCCCC(=O)O)O[C@H]2C[C@H]1O (stereo partly drawn)	7150
CCCCCCCCCCCCCCCCCC(=O)NCCO	6120
COc1cc2c(cc1OC)-c1cc3nc4ccccc4nc3n1C(C)(C)C2	3590
O=C(CCC/C=C\C[C@@H]1[C@@H](/C=C/[C@@H](O)CCc2ccccc2)[C@H](O)C[C@@H]1O)NC(CO)CO	5330
